experiment: Study for pharmacokinetics in blood after oral administration to rats; assay type: in vivo; conditions: male, Crl: CD (SD), rat, 30 mg/kg, oral 30 mg/kg once daily, Day 4 of administration
Listing of recorded Cmax by entry.
MEASURED PARAMETER: Cmax (µM)

- MOLECULAR STRING: "O=C(NCc1ccc(Cl)cc1Cl)[C@]1(F)CC[C@@](O)(CO)c2ncccc21"
  MEASURED PARAMETER: "Cmax"
  DATA VALUE: 8.27
- MOLECULAR STRING: "O=C(NCc1ccc(F)cc1Cl)[C@]1(F)CC[C@@](O)(CO)c2ncccc21"
  MEASURED PARAMETER: "Cmax"
  DATA VALUE: 14.7

###

test: Study for pharmacokinetics in blood after oral administration to rats; assay type: in vivo; conditions: male, Crl: CD (SD), rat, 30 mg/kg, oral 30 mg/kg once daily, Day 4 of administration
MEASURED PARAMETER: Tmax (min)

- MOLECULAR STRING: "O=C(NCc1ccc(Cl)cc1Cl)[C@]1(F)CC[C@@](O)(CO)c2ncccc21"
  UNIT OF MEASUREMENT: "min"
  DATA VALUE: 15
- MOLECULAR STRING: "O=C(NCc1ccc(F)cc1Cl)[C@]1(F)CC[C@@](O)(CO)c2ncccc21"
  UNIT OF MEASUREMENT: "min"
  DATA VALUE: 35

###

Listing of recorded AUC(0-t) by entry.
experiment: Study for pharmacokinetics in blood after oral administration to rats; format: in vivo; conditions: male, Crl: CD (SD), rat, 30 mg/kg, oral 30 mg/kg once daily, Day 1 of administration

- MOLECULAR STRING: "O=C(NCc1ccc(F)cc1Cl)[C@]1(F)CC[C@@](O)(CO)c2ncccc21"
  AUC(0-t): "80.1 µM·h"
- MOLECULAR STRING: "O=C(NCc1ccc(Cl)cc1Cl)[C@]1(F)CC[C@@](O)(CO)c2ncccc21"
  AUC(0-t): "48.8 µM·h"
